# PROTOCOL_TEXT: blockers of an Epstein-Barr virus protein-peptide interaction – biochemical, fluorescence polarization, dose response (AID 1419)
# ASSAY_CONTEXT: cell-free protein-peptide binding, 2 h
The source made the active and inactive calls. No rule for the calls is given here.
Lab note: assign the record to one of active, inactive

In [3]: df
Out[3]:
                          compound  label_value
0  COC(=O)c1ccccc1NC(=O)Nc1ncccc1C     inactive

How did this test come out for `Cc1cccc(N2C(=O)NC(=O)/C(=C/c3cc4c(cc3[N+](=O)[O-])OCO4)C2=O)c1` ?
active

How did this test come out for `CN(C)c1ccc(/C=C2\CCC/C(=C\c3ccccc3)C2=O)cc1` ?
active

How did this test come out for `O=C(N/N=C/c1ccc(Cl)cc1)c1nc2ccc([N+](=O)[O-])cc2c(=O)[nH]1` ?
inactive
